molecular target: calmodulin (Bos taurus); construct: a sufficient amount of bovine brain calmodulin; from tissue; host or cells: bovine brain (calmodulin); bovine heart (PDE); assay: inhibition of calmodulin activation of cyclic nucleotide phosphodiesterase (PDE), hydrolysis of [3H] cAMP; type: biochemical, bovine; settings: Table 2; mean ± S.E. of three assays; * (α 3 CH2, β 2 CH2, β 3 CH2, α 3 0, β 2 0) mean of two; read-out: IC50 in μM (x ± SE)
Counter-ions that a name gives are not always drawn.
Assay endpoint: IC50 (µM)
Answers are plain numbers, in µM.

{"Compound": "c1ccc2c(OCCN3CCCCC3)cccc2c1", "Assay result": 152}

Return reported IC50 values for all items listed beneath this line.
1. c1ccc2c(OCCCCCCCN3CCCCC3)cccc2c1 [α 7 CH2, hydrochloride]
2. c1ccc2cc(OCCCCN3CCCCC3)ccc2c1
3. c1ccc2cc(OCCCCCN3CCOCC3)ccc2c1

**A:**
4.7
55.8
72.7

----------
molecular target: calmodulin (Bos taurus, UniProt P62157); construct: a sufficient amount of bovine brain calmodulin; from tissue; host or cells: bovine brain (calmodulin); bovine heart (PDE); experiment: inhibition of calmodulin activation of cyclic nucleotide phosphodiesterase (PDE), hydrolysis of [3H] cAMP; format: biochemical, bovine; conditions: Table 1; mean ± S.E. of three assays; * (β CHCH 4 6) mean of two; read-out: IC50 in μM (x ± SE)
Counter-ions that a name gives are not always drawn.
Consider the following compounds; for each one, report its IC50.
One number for each entry, in µM.

{"Compound": "c1ccc2c(OCCCCCN3CCCCC3)cccc2c1", "Assay target": "calmodulin (Bos taurus, UniProt P62157)", "IC50, µM": 39.1}
{"Compound": "C(=Cc1ccc2ccccc2c1)CCCCN1CCCCC1 [β CHCH 4 6, oxalate]", "Assay target": "calmodulin (Bos taurus, UniProt P62157)", "IC50, µM": 2.2}

Next:
**Q:** State recorded IC50 with calmodulin (Bos taurus, UniProt P62157), entry c1ccc2cc(SCCCCCN3CCCCC3)ccc2c1 , no comment.
**A:** 22.1

----------
Exercise: state measured IC50 for each of the compounds provided.
target: calmodulin (Bos taurus, UniProt P62157); construct: a sufficient amount of bovine brain calmodulin; from tissue; host or cells: bovine brain (calmodulin); bovine heart (PDE); test: inhibition of calmodulin activation of cyclic nucleotide phosphodiesterase (PDE), hydrolysis of [3H] cAMP; assay type: biochemical, bovine; conditions: Table 7, effect of the aryl moiety; mean ± S.E. of three assays; * (drawing 9 6 pyrrolidine) mean of two; read-out: IC50 in μM (x ± SE)
Where a name gives a salt, the structure may show the parent alone.
Give bare numbers, in µM.

{"Compound": "Clc1ccc(OCCCCN2CCCCC2)cc1Cl", "Assay target": "calmodulin (Bos taurus, UniProt P62157)", "IC50 (µM)": 55.3}
{"Compound": "c1cc(OCCCCCCN2CCCC2)c2occc2c1 [drawing 9 6 pyrrolidine]", "Assay target": "calmodulin (Bos taurus, UniProt P62157)", "IC50 (µM)": 204}

// input: 5 compounds below; output: IC50 for each
1. c1cc(OCCCCN2CCCC2)c2ccsc2c1 [drawing 8 4 pyrrolidine]
2. c1cc(OCCCCN2CCCCC2)c2occc2c1 [drawing 9 4 piperdine]
3. c1cc(OCCCCCCN2CCCC2)c2ccsc2c1 [drawing 8 6 pyrrolidine]
4. c1cc(OCCCCCCN2CCCCC2)c2ccsc2c1 [drawing 8 6 piperdine]
5. c1cc(OCCCCN2CCCCC2)c2ccsc2c1 [drawing 8 4 piperdine, oxalate]

**A:**
1: 0.88; 2: 70.1; 3: 0.22; 4: 0.38; 5: 1.8

----------
target: calmodulin (Bos taurus); construct: a sufficient amount of bovine brain calmodulin; from tissue; host or cells: bovine brain (calmodulin); bovine heart (PDE); assay: inhibition of calmodulin activation of cyclic nucleotide phosphodiesterase (PDE), hydrolysis of [3H] cAMP; type: biochemical, bovine; settings: Table 3; mean ± S.E. of three assays; * (β 6 piperdine) mean of two; read-out: IC50 in μM (x ± SE)
Output YES for records whose IC50 is lower than 20 µM, NO for records at or above 20 µM.

{"Record smiles": "c1ccc2c(SCCCCN3CCCCC3)cccc2c1", "Assay target": "calmodulin (Bos taurus)", "Label value": "NO"}

**Q:** I'd appreciate it if you could check whether c1ccc2cc(SCCCCCCN3CCCCC3)ccc2c1 has IC50 smaller than 20 µM.
**A:** YES

**Q:** Dear colleague, could you confirm whether IC50 of c1ccc2cc(SCCCCN3CCCCC3)ccc2c1 falls below 20 µM? Thanks.
**A:** YES

**Q:** Is it true that IC50 reported for c1ccc2cc(SCCCN3CCCCC3)ccc2c1 is less than 20 µM?
**A:** NO

**Q:** Would you kindly verify if IC50 of c1ccc2cc(SCCCCN3CCCC3)ccc2c1 is strictly less than 20 µM?
**A:** YES

----------
biological target: calmodulin (Bos taurus); construct: a sufficient amount of bovine brain calmodulin; from tissue; host or cells: bovine brain (calmodulin); bovine heart (PDE); assay: inhibition of calmodulin activation of cyclic nucleotide phosphodiesterase (PDE), hydrolysis of [3H] cAMP; assay type: biochemical, bovine; settings: Table 2; mean ± S.E. of three assays; * (α 3 CH2, β 2 CH2, β 3 CH2, α 3 0, β 2 0) mean of two; read-out: IC50 in μM (x ± SE)
Assay endpoint: log10(IC50) (log10 of the value in µM)
Transform log10 | Measure IC50 | Unit µM

Example compounds with recorded log10(IC50):
{"Compound": "c1ccc2c(OCCCCN3CCOCC3)cccc2c1 [α 4 0]", "log10(IC50)": 1.73}
{"Compound": "c1ccc2cc(OCCCCN3CCOCC3)ccc2c1 [β 4 0]", "log10(IC50)": 1.93}
{"Compound": "c1ccc2c(OCCCCN3CCCCC3)cccc2c1 [α 4 CH2]", "log10(IC50)": 0.87}
{"Compound": "c1ccc2c(OCCCCCCN3CCCCC3)cccc2c1 [α 6 CH2]", "log10(IC50)": 1.45}
{"Compound": "c1ccc2c(OCCCCCN3CCOCC3)cccc2c1 [α 5 0]", "log10(IC50)": 1.63}

Go through the list and state log10(IC50) for each entry.
1. c1ccc2cc(OCCCCCN3CCCCC3)ccc2c1 [β 5 CH2]
2. c1ccc2c(OCCCN3CCCCC3)cccc2c1 [α 3 CH2]
3. c1ccc2cc(OCCCN3CCCCC3)ccc2c1 [β 3 CH2]

**A:**
1. 1.73
2. 2.03
3. 1.47

Each of the following entries comes with a recorded value; kindly state log10(IC50) for each.
1. c1ccc2c(OCCCCCCCCN3CCCCC3)cccc2c1 [α 8 CH2]
2. c1ccc2c(OCCCN3CCOCC3)cccc2c1 [α 3 0]

**A:**
1. 0.72
2. 2.34

----------
target: calmodulin (Bos taurus); construct: a sufficient amount of bovine brain calmodulin; from tissue; host or cells: bovine brain (calmodulin); bovine heart (PDE); assay: inhibition of calmodulin activation of cyclic nucleotide phosphodiesterase (PDE), hydrolysis of [3H] cAMP; format: biochemical, bovine; details: Table 5, effect of base strength of the terminal amine; mean ± S.E.; read-out: IC50 in μM (x ± S.E.)
Assay endpoint: IC50 (µM)
One number for each entry, in µM.

Check out these entries, answers already filled in.
{"Record smiles": "c1ccc2c(OCCCCn3ccnc3)cccc2c1", "Assay target": "calmodulin (Bos taurus)", "IC50 [µM]": 68.3}
{"Record smiles": "NCCCCOc1cccc2ccccc12", "Assay target": "calmodulin (Bos taurus)", "IC50 [µM]": 3.85}

Next item in the queue.
**Q:** Quick one: give measured IC50 for c1ccc2c(OCCCCN3CCCC3)cccc2c1
**A:** 4

----------
target: calmodulin (Bos taurus); construct: a sufficient amount of bovine brain calmodulin; from tissue; host or cells: bovine brain (calmodulin); bovine heart (PDE); experiment: inhibition of calmodulin activation of cyclic nucleotide phosphodiesterase (PDE), hydrolysis of [3H] cAMP; assay type: biochemical, bovine; conditions: Table 6, halogen substitution on the naphthalene ring; mean ± S.E.; read-out: IC50 in μM (x ± SE)
Assay endpoint: IC50 (µM)
One number for each entry, in µM.

**Q:** Identify measured IC50 associated with Brc1ccc2cc(OCCCCN3CCCCC3)ccc2c1
**A:** 9.3
